Sourced from paper PMC12263630

target: human α2C adrenoceptor (Homo sapiens, UniProt P18825)
Sequence (P18825 whole entry): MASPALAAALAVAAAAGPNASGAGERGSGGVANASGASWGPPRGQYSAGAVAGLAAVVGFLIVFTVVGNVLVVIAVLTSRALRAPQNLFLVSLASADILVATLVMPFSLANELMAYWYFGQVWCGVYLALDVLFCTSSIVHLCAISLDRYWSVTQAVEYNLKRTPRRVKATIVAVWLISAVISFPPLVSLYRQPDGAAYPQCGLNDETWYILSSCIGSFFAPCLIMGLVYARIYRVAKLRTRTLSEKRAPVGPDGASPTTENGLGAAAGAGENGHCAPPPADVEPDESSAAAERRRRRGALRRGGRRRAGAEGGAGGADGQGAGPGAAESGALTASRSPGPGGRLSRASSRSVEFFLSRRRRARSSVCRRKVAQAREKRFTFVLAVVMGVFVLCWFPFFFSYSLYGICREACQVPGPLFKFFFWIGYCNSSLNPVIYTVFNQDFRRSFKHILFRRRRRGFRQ
protocolDetails: β-arrestin recruitment chemiluminescent assay (PathHunter), α2C
studyConditions: α2CR
pEC50: −log10 of the molar value.

>  <compound>
Cc1cccc([C@H](C)c2cnc[nH]2)c1C [Dexmedetomidine]

>  <pEC50>
7.62

$$$$

* * *

Form field: Max activity (one value per entry).
target: human α2C adrenergic receptor (Homo sapiens, UniProt P18825)
Sequence (P18825 whole entry): as above
protocolDetails: [35S]GTPγS binding assay, α2C
Assay type: biochemical
studyConditions: α2CR; relative to maximal response of UK-14304
measurementLabel: Max activity (%)

>  <molecule>
Cc1cccc([C@H](C)c2cnc[nH]2)c1C

>  <numericReadout>
110

$$$$
>  <molecule>
Clc1cccc(Cl)c1N=C1NCCN1

>  <numericReadout>
32

$$$$
>  <molecule>
CC(Oc1c(Cl)cccc1Cl)C1=NCCN1 (stereo not shown)

>  <numericReadout>
50

$$$$
>  <molecule>
N=C(N)NC(=O)Cc1c(Cl)cccc1Cl

>  <numericReadout>
72

$$$$
